# Test system: ACHN renal
# measurement.protocol: NCI-60 one-dose screen, 48 h (100 = growth as untreated, 0 = no growth, -100 = all killed)
# particulars: 10 µM unless noted
# Description: Growth inhibition of the ACHN human tumor cell line is measured as a screen for anti-cancer activity. Cells are grown in 96 well plates and exposed to the test compound for 48 hours. Compounds are tested at a single concentration, which is 10^-5 M for most compounds. The reported endpoint is percent growth (GI% or GIPRCNT), where numbers from 0 - 100% represent growth inhibition, and numbers from -100% - 0 represent cell death. For example, a value of 40 represents 60% growth inhibition. […]
Compounds without any hit were thinned out: in the full panel of roughly 83,000, 20% have a hit. Active and inactive are the calls of the source. The calls were made as follows: active = growth percent below 10; inactive = the rest.
value.type: growth

Sample records with growth:
O=C1C=CN2C(=O)CC=CC2[C@@H]1O (stereo partly specified) | 109% (inactive)
CN1C(=O)N(C)C2C1NN=c1s/c(=C\c3ccc(Br)cc3)c(=O)n12 (stereo unspecified) | 43.2% (inactive)
COc1cc(C2CC(c3ccccc3)=NN2C=O)ccc1Oc1nc2c(c(=O)n(C)c(=O)n2C)n1C (stereo unspecified) | 86.9% (inactive)

Q. Report growth on ACHN renal for this entry: "CCN(CC)C(=O)O/N=C(/C)c1ccccc1"
A. 112% (inactive)

Q. Report growth on ACHN renal for this entry: "COc1ccc2nc3ccccc3c(NCc3ccc(C)cc3)c2c1"
A. 16.3% (inactive)

Q. Report growth on ACHN renal for this entry: COc1cc(C2C(C#N)=C(N)Oc3cc4c(cc32)OCO4)cc2c1OCO2 (stereo unspecified)
A. 35% (inactive)

###

# System: HCC-2998 colon
# measurement.protocol: NCI-60 one-dose screen, 48 h (100 = growth as untreated, 0 = no growth, -100 = all killed)
# particulars: 10 µM unless noted
Compounds without any hit were thinned out: in the full panel of roughly 83,000, 20% have a hit.
value.type: growth (%)
Write down the numeric answer in % and omit the unit.

Sample records with growth:
O=S(=O)(Cc1ccc(Cl)cc1Cl)c1ccc(Cl)cc1 | 31.7
COc1cc(CN2CCC(N3CCCC3=O)c3ccccc32)cc(OC)c1OC (stereo not drawn) | 93.2
O=C(NCCN1CCCC1)n1cc(-c2ccncc2)c(-c2cc(O)cc(Cl)c2)n1 | 122
CNC(=O)OC1C(O[C@H]2C[C@H]3[C@@H]4CC=C5C[C@@H](O)CC[C@]5(C)[C@H]4CC[C@]3(C)[C@H]2[C@H](C)C(=O)CCC(C)C)OCC(O)C1OC1OCC(O)C(O)C1OC(=O)c1ccc(OC)cc1 (stereo partly drawn) | 67.3
C#CCO[C@H]1CC[C@H](OCC#C)[C@@H]2[C@H]1[C@H]1C[C@@H]3[C@@]4(C)CCC[C@@](C)(C(=O)OC)[C@@H]4CC[C@@]23C=C1C(C)C | 94.6

Q. Report growth on HCC-2998 colon for this entry: "O=[N+]([O-])c1ccc(N=Nc2c(NNc3ccc([N+](=O)[O-])cn3)cc(S(=O)(=O)O)c3ccccc23)nc1"
A. 87.1

Q. Report growth on HCC-2998 colon for this entry: "O=C(CCCCCCN1CC(=O)N2[C@@H](c3ccc(Cl)c(Cl)c3)c3[nH]c4ccccc4c3C[C@H]2C1=O)NO"
A. 61.9

Q. Report growth on HCC-2998 colon for this entry: "COc1cc(/C=C/c2cc(/C=C/c3ccc(O)c(OC)c3)n(C(=O)c3ccccc3Br)n2)ccc1O"
A. 40.9
